Attribute: max response
Assay: qHTS assay for small molecule antagonists of peroxisome proliferator-activated receptor delta signaling (AID 588535);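 note: cells co-treated with a PPAR-delta agonist as stimulator during compound exposure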
Settings: HEK293T PPARd-UAS-bla, beta-lactamase FRET ratio, 18 h; 460 nm channel
Records with an inconclusive call do not appear.
Remember to follow the number with its unit.

Use the examples below as a reference point.
{"columns": ["compound", "max response"],
 "data": [
  ["CCCCCCCCCCCCCCCCN(C)C", "-16.5%"],
  ["CCCCCCCC/C=C\\CCCCCCCC(=O)OC", "-11.5%"],
  ["CC1COCc2cc3c(cc21)C(C)(C)C(C)C3(C)C (stereo not drawn)", "-16.1%"],
  ["CCC(C)(C)C1CCC(O)CC1 (stereo not drawn)", "-12.1%"],
  ["CCCCCCCCCCCC[N+](C)(C)[O-]", "-19.7%"],
  ["CCCCCCCOC(=O)c1ccccc1C(=O)OCCCCCCC", "-7.26%"],
  ["CCCCCCCCCCCCN", "-18.4%"],
  ["COc1nc(C)nc(NC(=O)NS(=O)(=O)c2ccccc2OCCCl)n1", "-8.8%"]
]}

Moving on to the next compound.
(Q) Which value of max response has been reported for Cl[Si](Cl)(Cl)c1ccccc1 in the records?
(A) 13.6%

====

Target: Cytochrome P450 3A4 (Homo sapiens) (UniProt P08684)
Sequence (P08684 whole entry, looked up): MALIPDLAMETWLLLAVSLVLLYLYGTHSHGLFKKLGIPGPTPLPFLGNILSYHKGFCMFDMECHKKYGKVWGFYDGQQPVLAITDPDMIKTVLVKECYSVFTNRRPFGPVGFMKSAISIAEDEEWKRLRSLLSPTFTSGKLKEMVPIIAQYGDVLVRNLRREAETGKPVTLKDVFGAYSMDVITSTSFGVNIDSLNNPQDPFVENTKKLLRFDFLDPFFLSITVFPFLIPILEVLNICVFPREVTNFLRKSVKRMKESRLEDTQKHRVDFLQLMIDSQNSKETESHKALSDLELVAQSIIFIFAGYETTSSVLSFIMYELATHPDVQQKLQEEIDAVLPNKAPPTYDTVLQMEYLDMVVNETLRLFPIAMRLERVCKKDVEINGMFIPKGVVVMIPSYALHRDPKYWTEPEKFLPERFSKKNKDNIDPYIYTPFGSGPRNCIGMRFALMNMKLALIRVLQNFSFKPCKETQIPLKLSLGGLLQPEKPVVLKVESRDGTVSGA
Assay: qHTS Assay for Activators of Cytochrome P450 3A4 (AID 885); note: nearly all actives have a fitted effect of over 65% in size
Settings: recombinant CYP3A4, Luciferin-PPXE luminescence, 60 min; series mostly up to 57.1 µM
The source made the active and inactive calls. Calls come from the whole dose curve; as a rule, active = well fitted activation curve with a large enough effect; inconclusive = small, poorly fitted or top-dose-only effect; inactive = no such curve, though single readings can be large or run the other way.
measured_attribute: activity change, positive = activation

{"columns": ["compound", "tested_on", "activity change, positive = activation"],
 "data": [
  ["COC(=O)CNC(=O)C1(C)C=CCN1C(=O)c1ccccc1 (configuration not stated)", "Cytochrome P450 3A4 (Homo sapiens) (UniProt P08684)", "inactive"],
  ["CCc1cc2c(nc1CC)CCN(CC/C(C)=N/OC[C@H]1O[C@H](c3ccccc3)C=C[C@@H]1Oc1ccc(OC)cc1)C2", "Cytochrome P450 3A4 (Homo sapiens) (UniProt P08684)", "-51.8% [at 11.4 µM] (inactive)"],
  ["CC12C=C(/C=C/C=C/c3ccccc3)C(C)(C1)C(/C=C/c1ccccc1)CC2=O (configuration not stated)", "Cytochrome P450 3A4 (Homo sapiens) (UniProt P08684)", "-62.5% [at 11.4 µM] (inactive)"],
  ["CO[C@@H]1COC(=O)[C@@H](C)NC(=O)C/C=C\\[C@@H](C)[C@H](NS(=O)(=O)c2ccc(C)cc2)COC(=O)[C@H](C)NC(=O)C/C=C\\[C@H]1C", "Cytochrome P450 3A4 (Homo sapiens) (UniProt P08684)", "-53.2% [at 11.4 µM] (inactive)"],
  ["CS(C)(=O)=O", "Cytochrome P450 3A4 (Homo sapiens) (UniProt P08684)", "inactive"]
]}

(Q) Which value of activity change, positive = activation has been reported for CCc1cc2c(nc1CC)CCN(CC/C(C)=N/OC[C@@H](C)[C@H](OCc1ccccc1)C(C)C)C2 in the records?
(A) -34.8% [at 11.4 µM] (inactive)

(Q) Which value of activity change, positive = activation has been reported for CC(=O)OCC1OC(c2ccc3c(c2)OCO3)C=CC1OC(C)=O (configuration not stated) in the records?
(A) -75.4% [at 11.4 µM] (inactive)

(Q) Which value of activity change, positive = activation has been reported for C/C(CCN1CCCCc2nc(C)c(C)cc21)=N\OC[C@@H](C)[C@H](OCc1ccccc1)C(C)C in the records?
(A) -49.2% [at 11.4 µM] (inactive)

(Q) Which value of activity change, positive = activation has been reported for C/C(CCC(=O)OC[C@@H]1O[C@H](C#Cc2ccccc2)C=C[C@@H]1Oc1ccc(C)cc1)=N/O[C@@H](C)CN1CCCc2nc(C)c(C)cc21 in the records?
(A) -95.5% [at 11.4 µM] (inactive)
